# methodNotes: S16 Schwann cell PMP22 intronic element beta-lactamase assay (AID 624044); also: nearly all actives have a fitted effect of over 15% in size
# conditionSummary: S16 rat Schwann cells, PMP22 element beta-lactamase FRET, 24 h; series mostly up to 38.3 µM
Results filed as inconclusive are left out. The source made the active and inactive calls. Calls follow the shape of the full dose curve.
Classes used: 1 for active, -1 for inactive

> print(dat)
                                    compound  group
 1  COc1ccc(-c2cc(C(F)F)nn2-c2ccc(S(N)(=O)=O)cc2)cc1F     -1
 2    CCN(CC)CCNc1ccc(CO)c2sc3ccccc3c(=O)c12      1
 3        O=C(Nc1ncc([N+](=O)[O-])s1)c1cccs1     -1
 4  Clc1cccc(C(c2ccc3nc[nH]c3c2)n2ccnc2)c1 (stereo unspecified)     -1
 5                  C/C=C/C=N/NC(=O)c1ccncc1     -1
 6  C#C[C@]1(O)CC[C@H]2[C@@H]3CCC4=Cc5oncc5C[C@]4(C)[C@H]3CC[C@@]21C     -1
 7  C[N+]1(CC2COC(c3ccccc3)(C3CCCCC3)O2)CCCCC1 (stereo unspecified)     -1
 8  CN(CCCN1c2ccccc2CCc2ccccc21)CC(=O)c1ccc(Cl)cc1     -1
 9  Cc1c(-c2ccccc2)oc2c(C(=O)OCCN3CCCCC3)cccc2c1=O     -1
10  CCOc1ccccc1OCCN[C@H](C)Cc1ccc(OC)c(S(N)(=O)=O)c1     -1
11  CC[C@H](c1ccc(O)cc1)[C@@H](CC)c1ccc(O)cc1     -1
12                           O=C(O)P(=O)(O)O     -1
13  C#C[C@]1(O)CC[C@H]2[C@@H]3CCc4cc(OC)ccc4[C@H]3CC[C@@]21C     -1
14  C=C[C@@]1(C)CC(=O)[C@]2(O)[C@@]3(C)[C@@H](O)CCC(C)(C)[C@@H]3[C@H](O)[C@H](OC(C)=O)[C@@]2(C)O1      1
15  O=C(CCN1CCN2CCCC2C1)N1c2ccccc2Sc2ccc(Cl)cc21 (stereo unspecified)     -1
16     CCCCCN=C(N)N/N=C/c1c[nH]c2ccc(OC)cc12     -1
17    OCCOCCN1CCN(C2=Nc3ccccc3Sc3ccccc32)CC1     -1
18         CCN(CC)CCOc1ccccc1C(=O)CCc1ccccc1     -1
19           Cc1cc(-c2ccccc2)nnc1NCCN1CCOCC1     -1
20  CCC(CC)(CC(=O)Nc1cccc(/C=C/c2nc(C3CCC3)cs2)c1)C(=O)O     -1
21  O=c1[nH]c(=O)n([C@H]2C[C@H](O)[C@@H](CO)O2)cc1F      1
22  CCCCNc1ccc(C(=O)OCCOCCOCCOCCOCCOCCOCCOCCOCCOC)cc1     -1
23              CCCCc1cc2ccccc2c(OCCN(C)C)n1     -1
24     CN1CCc2cccc3c2[C@H]1Cc1ccc(O)c(O)c1-3     -1
25                       CCCCCCCCCCCCSCCOCCO     -1
26  CC1(COc2ccc(CC3SC(=O)NC3=O)cc2)CCCCC1 (stereo unspecified)     -1
27                       c1ccc(CC2=NCCN2)cc1     -1
28                       NC(N)=NCc1cccc(I)c1     -1
29     CCc1oc2ccccc2c1C(=O)c1cc(I)c(O)c(I)c1     -1
30  O=C(O)C(Cc1cc(I)c(O)c(I)c1)c1ccccc1 (stereo unspecified)     -1
31  COc1cc(C(=O)NCc2ccc(OCCN(C)C)cc2)cc(OC)c1OC     -1
32                         CCCCN=C(N)N=C(N)N     -1
33  CCCCC(CC)COC(=O)c1ccc(N(C)C)cc1 (stereo unspecified)     -1
34  COc1cc([C@H]2Oc3cc([C@H]4Oc5cc(O)cc(O)c5C(=O)[C@@H]4O)ccc3O[C@@H]2CO)ccc1O     -1
35           CN1CCC(OC(c2ccccc2)c2ccccc2)CC1     -1
36                  NS(=O)(=O)Cc1noc2ccccc12     -1

Source listed as PubChem BioAssay (NCATS).
